Data origin, for the record: the supplement of paper PMC12350171

System: P. vulgatus WT;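 note: active when median AUC fell below 0.1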
MEASUREMENT_DESCRIPTION: growth AUC normalised to DMSO control (median) (fraction of control); higher = less growth inhibition, active = hit call of the paper
EXPERIMENTAL_CONDITIONS: 20 µM
Counter-ions that a name gives are not always drawn.
Would you please tag the item met when its growth AUC normalised to DMSO control is 1 or above, and not met when it is below?

Task: Would you say COC(=O)C1=C(C)NC(C)=C(C(=O)O[C@H]2CCN(Cc3ccccc3)C2)[C@H]1c1cccc([N+](=O)[O-])c1 [Barnidipine Hydrochloride] shows growth AUC normalised to DMSO control at minimum 1?
Output: met

Task: Decide: is the reported value of growth AUC normalised to DMSO control for Cc1cccc(C)c1NC(=O)C1CCCCN1C (configuration not stated) [Mepivacaine hydrochloride] equal to or greater than 1?
Output: met

Task: # check: growth AUC normalised to DMSO control of COc1cccc2c1C(=O)c1c(O)c3c(c(O)c1C2=O)C[C@@](O)(C(=O)CO)C[C@@H]3O[C@H]1C[C@H](N)[C@H](O)[C@H](C)O1 [Doxorubicin hydrochloride] is greater than or equal to 1
Output: not met
